These measurements were taken from patent US20230027295A1.

Test: Cynomolgus monkey pharmacokinetics
Format: in vivo
Set-up: concentration or dose not given beside the values
Details: male, plasma, po, ig
ENDPOINT: AUC
Record the result as a number with its unit.

COCCOc1nn([C@@H](Cc2ccccc2)C(=O)Nc2ccc(C(=O)O)cc2)c(=O)cc1-c1cc(Cl)ccc1C(C)=O [Example 21] ... 357 ng·h/mL
COc1nn([C@@H](Cc2ccccc2)C(=O)Nc2ccc(C(=O)O)cc2)c(=O)cc1-c1cc(Cl)ccc1C(C)=O [Example 19] ... 2480 ng·h/mL

Now let's try a different one.
Look up and state reported AUC for COc1cn([C@@H](Cc2ccccc2)C(=O)Nc2ccc(C(=O)O)cc2)c(=O)cc1-c1cc(Cl)ccc1C(C)=O [Compound B, reference compound]
1490 ng·h/mL

---

Assay: Cynomolgus monkey pharmacokinetics
Format: in vivo
Conditions: male, plasma, iv
ENDPOINT: Cmax (ng/mL)
Answers are plain numbers, in ng/mL.

Past entries and their recorded results:
COc1nn([C@@H](Cc2ccccc2)C(=O)Nc2ccc(C(=O)O)cc2)c(=O)cc1-c1cc(Cl)ccc1C(C)=O [Example 19] ... 2690
COc1cn([C@@H](Cc2ccccc2)C(=O)Nc2ccc(C(=O)O)cc2)c(=O)cc1-c1cc(Cl)ccc1C(C)=O [Compound B, reference compound] ... 8760

// switching to the query compound
State its Cmax for this compound: COCCOc1nn([C@@H](Cc2ccccc2)C(=O)Nc2ccc(C(=O)O)cc2)c(=O)cc1-c1cc(Cl)ccc1C(C)=O [Example 21]
1010

---

Assay: Beagle dog pharmacokinetics
Assay type: in vivo
Details: male, plasma, iv
ENDPOINT: half-life

Each molecule below has a reported value. Please supply its half-life.
1. COc1nn([C@@H](Cc2ccccc2)C(=O)Nc2ccc(C(=O)O)cc2)c(=O)cc1-c1cc(Cl)ccc1C(C)=O [Example 19]
2. CCC(=O)c1ccc(Cl)cc1-c1cc(=O)n([C@@H](Cc2ccccc2)C(=O)Nc2ccc(C(=O)O)cc2)nc1OC [Example 32]

["252 min", "466 min"]

---

Could you please report measured Vd for the items listed next?
Experiment: Beagle dog pharmacokinetics
Format: in vivo
Settings: male, plasma, iv, read-out: Vss
Answers are plain numbers, in L/kg.

COc1nn([C@@H](Cc2ccccc2)C(=O)Nc2ccc(C(=O)O)cc2)c(=O)cc1-c1cc(Cl)ccc1C(C)=O [Example 19] ... 0.8

Identify measured Vd corresponding to CCC(=O)c1ccc(Cl)cc1-c1cc(=O)n([C@@H](Cc2ccccc2)C(=O)Nc2ccc(C(=O)O)cc2)nc1OC [Example 32]
2.64

---

Assay: Rat pharmacokinetics
Format: in vivo, SD rats
Conditions: ig
Assignment: determine reported F for the given molecules.
Give bare numbers, in %.

Solved entries:
COc1nn([C@@H](Cc2ccccc2)C(=O)Nc2ccc(C(=O)O)cc2)c(=O)cc1-c1cc(Cl)ccc1C(C)=O ... 24.6
CC(=O)c1ccc(Cl)cc1-c1cc(=O)n([C@@H](Cc2ccccc2)C(=O)Nc2ccc(C(=O)O)cc2)nc1OCCO ... 1.7
O=C(O)c1ccc(NC(=O)[C@H](Cc2ccccc2)n2cnc(-c3cc(Cl)ccc3-n3cc(Cl)nn3)cc2=O)cc1 [Compound A, reference compound] ... 8.2
CCOc1nn([C@@H](Cc2ccccc2)C(=O)Nc2ccc(C(=O)O)cc2)c(=O)cc1-c1cc(Cl)ccc1C(C)=O ... 8.1
CC(=O)c1ccc(Cl)cc1-c1cc(=O)n([C@@H](Cc2ccccc2)C(=O)Nc2ccc(C(=O)O)cc2)nc1OC1COC1 ... 3.9

Below: the item to evaluate.
Provide one value: measured F of COc1nn([C@@H](Cc2ccccc2)C(=O)Nc2ccc3[nH]c(C(=O)O)cc3c2)c(=O)cc1-c1cc(Cl)ccc1C(C)=O
0.1

---

Would you mind telling me the reported Cmax of each entry?
Assay: Rat pharmacokinetics
Type: in vivo, SD rats
Conditions: male, SD, plasma, iv
Respond with a number, then the unit of measure.

// known answers, use as guide
COc1nn([C@@H](Cc2ccccc2)C(=O)Nc2ccc(C(=O)O)cc2)c(=O)cc1-c1cc(Cl)ccc1C(C)=O [Example 19] ... 2500 ng/mL
O=C(O)c1ccc(NC(=O)[C@H](Cc2ccccc2)n2cnc(-c3cc(Cl)ccc3-n3cc(Cl)nn3)cc2=O)cc1 [Compound A, reference compound] ... 4600 ng/mL
COc1nn([C@@H](Cc2ccccc2)C(=O)Nc2ccc3[nH]c(C(=O)O)cc3c2)c(=O)cc1-c1cc(Cl)ccc1C(C)=O [Example 15] ... 1840 ng/mL
CC(=O)c1ccc(Cl)cc1-c1cc(=O)n([C@@H](Cc2ccccc2)C(=O)Nc2ccc(C(=O)O)cc2)nc1OC(F)F [Example 25] ... 1780 ng/mL
CCOc1nn([C@@H](Cc2ccccc2)C(=O)Nc2ccc(C(=O)O)cc2)c(=O)cc1-c1cc(Cl)ccc1C(C)=O [Example 16] ... 2530 ng/mL
CC(=O)c1ccc(Cl)cc1-c1cc(=O)n([C@@H](Cc2ccccc2)C(=O)Nc2ccc(C(=O)O)cc2)nc1OC1COC1 [Example 24] ... 1270 ng/mL

Each molecule below has a reported value. Please supply its Cmax.
1. CC(=O)c1ccc(Cl)cc1-c1cc(=O)n([C@@H](Cc2ccccc2)C(=O)Nc2ccc(C(=O)O)cc2)nc1OCCO [Example 6]
2. CCC(=O)c1ccc(Cl)cc1-c1cc(=O)n([C@@H](Cc2ccccc2)C(=O)Nc2ccc(C(=O)O)cc2)nc1OC [Example 32]
3. COCCOc1nn([C@@H](Cc2ccccc2)C(=O)Nc2ccc(C(=O)O)cc2)c(=O)cc1-c1cc(Cl)ccc1C(C)=O [Example 21]

["1370 ng/mL", "2200 ng/mL", "1600 ng/mL"]

---

Observed log10 of IC50, system UniProt:P03951.
Sequence (P03951 388-625 limits assumed): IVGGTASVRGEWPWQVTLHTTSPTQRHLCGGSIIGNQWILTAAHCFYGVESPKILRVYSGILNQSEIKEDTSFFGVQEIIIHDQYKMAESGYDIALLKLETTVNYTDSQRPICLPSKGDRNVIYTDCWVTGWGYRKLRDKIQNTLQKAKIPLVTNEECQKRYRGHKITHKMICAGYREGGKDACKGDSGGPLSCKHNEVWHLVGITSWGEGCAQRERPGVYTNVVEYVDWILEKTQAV
Sequence (P03951 19-387 partner limits assumed): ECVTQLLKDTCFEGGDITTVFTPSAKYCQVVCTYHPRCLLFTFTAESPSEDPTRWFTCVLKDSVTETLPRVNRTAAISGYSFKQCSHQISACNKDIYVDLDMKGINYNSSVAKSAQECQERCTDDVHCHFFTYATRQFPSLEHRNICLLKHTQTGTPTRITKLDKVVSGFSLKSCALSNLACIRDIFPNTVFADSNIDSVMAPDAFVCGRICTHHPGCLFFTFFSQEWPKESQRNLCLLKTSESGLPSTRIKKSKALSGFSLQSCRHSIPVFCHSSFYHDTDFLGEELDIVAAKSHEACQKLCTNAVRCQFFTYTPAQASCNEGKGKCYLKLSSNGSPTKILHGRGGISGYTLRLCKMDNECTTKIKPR
Base-10 log of IC50, unit nM.

Use these answered entries as a reference point.
CCOCC1CCN(c2ccc(CC(C(=O)Nc3ccc(C(=O)O)cc3)n3nc(OC)c(-c4cc(Cl)ccc4C(C)=O)cc3=O)cc2)C(=O)C1 (stereo not drawn) ... 0.95
O=C(O)c1ccc(NC(=O)[C@H](Cc2ccccc2)n2ncc(-c3c(F)ccc(Cl)c3F)cc2=O)cc1 ... 3.15
COc1nn(C(Cc2ccc(NC(=O)C3CCCC3)cc2)C(=O)Nc2ccc(C(=O)O)cc2)c(=O)cc1-c1cc(Cl)ccc1C(C)=O (stereo not drawn) ... 1.14
COc1nn(C(Cc2cccc(C)c2)C(=O)Nc2ccc(C(=O)O)cc2)c(=O)cc1-c1cc(Cl)ccc1C(C)=O (stereo not drawn) ... 1.48

For the 2 molecules below, give their log10 of IC50 values.
1. COc1nn([C@@H](Cc2ccccc2)C(=O)Nc2ccc(C(=O)O)c(O)c2)c(=O)cc1-c1cc(Cl)ccc1C(C)=O
2. COc1cc(NC(=O)[C@H](Cc2ccccc2)n2nc(OC)c(-c3cc(Cl)ccc3C(C)=O)cc2=O)ccc1C(=O)O

1: 1.80; 2: 2.34

---

Experiment: Rat pharmacokinetics
Assay type: in vivo, SD rats
Details: male, SD, plasma, iv, read-out: Vss
From the text: Example 53: Investigation of the Pharmacokinetic Characteristics of the Compounds of the Present Invention SD rats: male, 180-250 g, purchased from Guangdong Medical Laboratory Animal Center. […] After blood drug concentrations being detected by LC-MS, WinNonlin 6.1 software was used to calculate pharmacokinetic parameters by non-compartmental model method.
ENDPOINT: Vd (L/kg)
One number for each entry, in L/kg.

Use the examples below as a reference point.
CCC(=O)c1ccc(Cl)cc1-c1cc(=O)n([C@@H](Cc2ccccc2)C(=O)Nc2ccc(C(=O)O)cc2)nc1OC ... 0.741
COc1nn([C@@H](Cc2ccccc2)C(=O)Nc2ccc3[nH]c(C(=O)O)cc3c2)c(=O)cc1-c1cc(Cl)ccc1C(C)=O ... 0.471
CCOc1nn([C@@H](Cc2ccccc2)C(=O)Nc2ccc(C(=O)O)cc2)c(=O)cc1-c1cc(Cl)ccc1C(C)=O ... 0.444
CC(=O)c1ccc(Cl)cc1-c1cc(=O)n([C@@H](Cc2ccccc2)C(=O)Nc2ccc(C(=O)O)cc2)nc1OCCO ... 0.432

Now take the following molecule into account.
# return recorded Vd for input O=C(O)c1ccc(NC(=O)[C@H](Cc2ccccc2)n2cnc(-c3cc(Cl)ccc3-n3cc(Cl)nn3)cc2=O)cc1 [Compound A, reference compound]
0.124

---

Kindly state half-life for each of the entries shown.
Assay: Cynomolgus monkey pharmacokinetics
Type: in vivo
Settings: male, plasma, po, ig
Give bare numbers, in h.

Examples with their reported half-life follow.
COc1nn([C@@H](Cc2ccccc2)C(=O)Nc2ccc(C(=O)O)cc2)c(=O)cc1-c1cc(Cl)ccc1C(C)=O ... 7.07
COCCOc1nn([C@@H](Cc2ccccc2)C(=O)Nc2ccc(C(=O)O)cc2)c(=O)cc1-c1cc(Cl)ccc1C(C)=O ... 11.4

Below: the item to evaluate.
Given the molecule COc1cn([C@@H](Cc2ccccc2)C(=O)Nc2ccc(C(=O)O)cc2)c(=O)cc1-c1cc(Cl)ccc1C(C)=O [Compound B, reference compound] , write its reported half-life.
8
